# tested.on: Adenosine receptor A2a (Homo sapiens)
# Sequence (P29274 whole entry): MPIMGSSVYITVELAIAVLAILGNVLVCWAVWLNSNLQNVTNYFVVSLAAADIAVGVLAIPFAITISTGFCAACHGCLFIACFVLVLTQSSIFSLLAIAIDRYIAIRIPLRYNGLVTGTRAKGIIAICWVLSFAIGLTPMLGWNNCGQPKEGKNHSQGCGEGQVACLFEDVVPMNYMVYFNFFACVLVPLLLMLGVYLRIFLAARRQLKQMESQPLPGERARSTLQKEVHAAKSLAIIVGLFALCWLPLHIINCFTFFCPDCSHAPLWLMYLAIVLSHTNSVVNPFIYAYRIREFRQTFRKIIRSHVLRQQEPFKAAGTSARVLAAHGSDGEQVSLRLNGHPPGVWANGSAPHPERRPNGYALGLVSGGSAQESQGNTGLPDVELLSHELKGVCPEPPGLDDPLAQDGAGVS
# experiment.summary: Antagonist activity at human adenosine A2A receptor by cAMP assay
# Type: functional
readout.type: IC50 (nM)
The figure you give is taken to be in nM; do not add the unit.

Exercise: Which measured IC50 belongs to CN1CCN(CC(=O)Nc2cc(-c3nccs3)nc(-c3ccco3)n2)CC1 , tested on Adenosine receptor A2a (Homo sapiens)?
Solution: 103

###

Measured pKi, listed per entry for reference.
# tested.on: Adenosine receptor A2a (Homo sapiens)
Keep it numeric: pKi is minus log10 of the concentration in mol/L.

// below: answered compounds
>  <molecular.string>
Cc1ccc(-c2nc(NC(=O)CN3CCN(C)CC3)cc(-n3nccc3C)n2)o1

>  <pKi>
7.85

$$$$
>  <molecular.string>
Cc1cc(C)n(-c2cc(NC(=O)CN3CCN(C)CC3)nc(-c3ccccn3)n2)n1

>  <pKi>
7.59

$$$$
>  <molecular.string>
CN1CCN(CC(=O)Nc2cc(-c3ccccn3)nc(-c3cccs3)n2)CC1

>  <pKi>
7.62

$$$$
>  <molecular.string>
Cc1cc(C)n(-c2cc(NC(=O)CN3CCN(C)CC3)nc(-c3nccs3)n2)n1

>  <pKi>
8.05

$$$$
>  <molecular.string>
CN1CCN(CC(=O)Nc2cc(-n3cccn3)nc(-c3ccccn3)n2)CC1

>  <pKi>
7.27

$$$$

Exercise: Which measured pKi belongs to Cc1cc(C)n(-c2nc(NC(=O)CN3CCN(C)CC3)cc(-c3nccs3)n2)n1 , tested on Adenosine receptor A2a (Homo sapiens)?
Solution: 7.57

Exercise: Which measured pKi belongs to Cc1cc(C)n(-c2nc(NC(=O)CN3CCN(C)CC3)cc(-c3cnco3)n2)n1 , tested on Adenosine receptor A2a (Homo sapiens)?
Solution: 6.00

Exercise: Which measured pKi belongs to Cc1ccc(-c2nc(NC(=O)CN3CCN(C)CC3)cc(-n3cccn3)n2)o1 , tested on Adenosine receptor A2a (Homo sapiens)?
Solution: 6.87

Data origin, for the record: ChEMBL document CHEMBL1142326
